Experimental System: Acetylcholinesterase (Electrophorus electricus)
Sequence (O42275 whole entry): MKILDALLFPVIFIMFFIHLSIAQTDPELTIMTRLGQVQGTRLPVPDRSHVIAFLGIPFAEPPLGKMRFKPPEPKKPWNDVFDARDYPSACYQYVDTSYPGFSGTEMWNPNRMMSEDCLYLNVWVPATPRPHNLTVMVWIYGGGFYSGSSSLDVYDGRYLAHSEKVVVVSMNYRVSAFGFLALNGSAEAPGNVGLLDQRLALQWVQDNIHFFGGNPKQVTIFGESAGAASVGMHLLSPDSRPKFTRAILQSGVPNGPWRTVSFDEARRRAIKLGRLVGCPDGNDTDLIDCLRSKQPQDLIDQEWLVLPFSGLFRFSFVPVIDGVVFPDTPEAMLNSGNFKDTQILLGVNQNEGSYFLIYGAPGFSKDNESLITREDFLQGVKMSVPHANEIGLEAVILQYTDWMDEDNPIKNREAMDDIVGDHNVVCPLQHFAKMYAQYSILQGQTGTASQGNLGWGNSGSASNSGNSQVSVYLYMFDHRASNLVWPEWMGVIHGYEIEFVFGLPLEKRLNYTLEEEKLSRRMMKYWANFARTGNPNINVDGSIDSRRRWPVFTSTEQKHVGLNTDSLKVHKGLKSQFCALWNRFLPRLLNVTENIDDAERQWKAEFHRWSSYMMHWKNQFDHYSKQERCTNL
pKi reference
Hey, just a heads up that pKi is the negative log base 10 of the concentration in molar.

Smiles Entry | Readout Number
COc1ccc(Nc2nc(Cl)nc(N3CCN(c4cc(C)nc5ncnn45)CC3)n2)cc1 | 6.99

# next molecule below
Q) What pKi value was documented for this molecule, Cc1cc(N2CCN(c3nc(Cl)nc(Nc4cccc(C(F)(F)F)c4)n3)CC2)n2ncnc2n1 ?
A) 7.16

* * *

Experimental System: Amyloid-beta precursor protein (Homo sapiens, UniProt P05067)
Sequence (P05067 whole entry): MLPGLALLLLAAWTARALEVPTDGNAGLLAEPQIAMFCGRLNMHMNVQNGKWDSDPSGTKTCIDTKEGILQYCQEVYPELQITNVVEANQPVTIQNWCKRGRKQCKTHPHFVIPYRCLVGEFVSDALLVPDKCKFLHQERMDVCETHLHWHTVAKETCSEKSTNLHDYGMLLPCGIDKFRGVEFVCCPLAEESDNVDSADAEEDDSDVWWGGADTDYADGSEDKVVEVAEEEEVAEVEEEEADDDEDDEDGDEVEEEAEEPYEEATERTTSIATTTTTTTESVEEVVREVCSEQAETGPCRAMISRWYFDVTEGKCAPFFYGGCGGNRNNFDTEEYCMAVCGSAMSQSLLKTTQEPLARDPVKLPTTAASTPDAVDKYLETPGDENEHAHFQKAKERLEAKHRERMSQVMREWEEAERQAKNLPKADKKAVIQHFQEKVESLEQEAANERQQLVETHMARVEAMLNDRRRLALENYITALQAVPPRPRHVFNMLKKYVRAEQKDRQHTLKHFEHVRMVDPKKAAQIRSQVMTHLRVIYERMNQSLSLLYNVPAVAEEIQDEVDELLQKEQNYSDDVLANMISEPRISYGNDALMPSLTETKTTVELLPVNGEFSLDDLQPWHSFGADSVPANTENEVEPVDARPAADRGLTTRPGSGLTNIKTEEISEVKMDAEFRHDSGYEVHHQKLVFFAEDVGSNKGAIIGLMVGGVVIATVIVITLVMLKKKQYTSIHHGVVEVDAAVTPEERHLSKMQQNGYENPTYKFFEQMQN
IC50 reference
Unit µM implied. Number only.

These solved cases illustrate the format of a correct answer.
Smiles Entry | IC50, µM
COc1ccc(Nc2nc(Cl)nc(Nc3ccc(F)c(Cl)c3)n2)cc1 | 23.8
Cc1ccc(Nc2nc(Nc3ccc(F)c(Cl)c3)nc(N3CCN(c4cc(C)nc5ncnn45)CC3)n2)cc1 | 25
COc1ccc(Nc2nc(Cl)nc(Nc3cccc(C(F)(F)F)c3)n2)cc1 | 17.6
Cc1cc(N2CCN(c3nc(Cl)nc(Nc4ccc(F)cc4)n3)CC2)n2ncnc2n1 | 15.9
Cc1cc(N2CCN(c3nc(Cl)nc(Nc4cccc(C(F)(F)F)c4)n3)CC2)n2ncnc2n1 | 10.4

Q) Form: Entry = Cc1cc(N2CCN(c3nc(Cl)nc(Nc4ccccc4F)n3)CC2)n2ncnc2n1 | System = Amyloid-beta precursor protein (Homo sapiens, UniProt P05067) | IC50 = ____
A) 13.4

Q) Form: Entry = FC(F)(F)c1cccc(Nc2nc(NC3CC3)nc(N3CCNCC3)n2)c1 | System = Amyloid-beta precursor protein (Homo sapiens, UniProt P05067) | IC50 = ____
A) 23.5

Q) Form: Entry = Fc1ccc(Nc2nc(Cl)nc(Nc3cccc(C(F)(F)F)c3)n2)cc1 | System = Amyloid-beta precursor protein (Homo sapiens, UniProt P05067) | IC50 = ____
A) 18.6

Q) Form: Entry = COc1ccc(Nc2nc(Cl)nc(N3CCN(c4cc(C)nc5ncnn45)CC3)n2)cc1 | System = Amyloid-beta precursor protein (Homo sapiens, UniProt P05067) | IC50 = ____
A) 11.5

Q) Form: Entry = Fc1ccc(Nc2nc(Cl)nc(Nc3cccc(C(F)(F)F)c3)n2)c(F)c1 | System = Amyloid-beta precursor protein (Homo sapiens, UniProt P05067) | IC50 = ____
A) 17.9

Q) Form: Entry = Cc1ccc(Nc2nc(Cl)nc(Nc3ccc(F)c(Cl)c3)n2)cc1 | System = Amyloid-beta precursor protein (Homo sapiens, UniProt P05067) | IC50 = ____
A) 18

Q) Form: Entry = Cc1cc(N2CCN(c3nc(Nc4ccc(F)cc4)nc(Nc4cccc(C(F)(F)F)c4)n3)CC2)n2ncnc2n1 | System = Amyloid-beta precursor protein (Homo sapiens, UniProt P05067) | IC50 = ____
A) 18.3

Q) Form: Entry = Cc1ccc(Nc2nc(Cl)nc(Nc3cccc(C(F)(F)F)c3)n2)cc1 | System = Amyloid-beta precursor protein (Homo sapiens, UniProt P05067) | IC50 = ____
A) 20.7

Q) Form: Entry = Cc1cc(N2CCN(c3nc(Nc4cccc(C(F)(F)F)c4)nc(Nc4ccc(F)c(Cl)c4)n3)CC2)n2ncnc2n1 | System = Amyloid-beta precursor protein (Homo sapiens, UniProt P05067) | IC50 = ____
A) 16.3
